Origin of measurements: patent US9969744B2

- test.name: Pharmacokinetics: plasma and brain concentration in wild type mice
- Assay type: in vivo
- details: mouse, brain/plasma, intraperitoneal, 1 hour after 40 mg/Kg i.p., read-out: Brain/Plasma ratio
property.label: Kp at 1 h

// Kp at 1 h lookup, key: CCCc1nn(C)c2c(=O)[nH]c(-c3cc(Cc4ccc(C(=O)Nc5ccccc5N)cc4)ccc3OCC)nc12
0.157

* * *

- target.or.system: PDE5A1 (Homo sapiens, UniProt O76074)
- Construct: they are full-length with N-terminal GST tag; GST (N)
- test.name: PDE enzyme activity assay (HTRF cGMP), PDE5A
- details: recombinant enzyme; read-out: PDE5A1 inhibition (IC50)
property.label: IC50

Here's what some known entries look like.
{"compound": "O=C(CCCCCCC(=O)Nc1ccccc1)NO [Vorinostat]", "IC50": "> 10000 nM"}
{"compound": "CCCc1nc(C)c2c(=O)[nH]c(-c3cc(Cc4ccc(C(=O)Nc5cscc5N)cc4)ccc3OCC)nn12 [Example 2-07]", "IC50": "10 to 1000 nM"}
{"compound": "Nc1ccccc1NC(=O)c1cnc(N2CCC(CN3CC(=O)N4C(Cc5c([nH]c6ccccc56)C4c4ccc5c(c4)OCO5)C3=O)CC2)nc1 (racemic) [Example 4-01]", "IC50": "1000 to 10000 nM"}
{"compound": "CCCc1nn(C)c2c(=O)[nH]c(-c3cc(CC4CC(C(=O)Nc5ccccc5N)C4)ccc3OCC)nc12 (racemic) [Example 1-04]", "IC50": "10 to 1000 nM"}
{"compound": "CCCc1nc(C)c2c(=O)[nH]c(-c3cc(S(=O)(=O)N4CCN(c5ncc(C(=O)Nc6ccccc6N)cn5)CC4)ccc3OCC)nn12 [Example 2-02]", "IC50": "< 10 nM"}

# return IC50 for each item in the list
1. CCCc1nn(C)c2c(=O)[nH]c(-c3cc(Cc4ccc(C(=O)Nc5ccccc5N)cc4)ccc3OCC)nc12 [Example 1-11]
2. CCCc1nn(C)c2c(=O)[nH]c(-c3cc(S(=O)(=O)N4CCN(c5ncc(C(=O)Nc6ccccc6N)cn5)CC4)ccc3OCC)nc12 [Example 1-01]
3. CCCc1nn(C)c2c(=O)[nH]c(-c3cc(C4CCC(C(=O)Nc5ccccc5N)CC4)ccc3OCC)nc12 (racemic) [Example 1-05]
4. CCCc1nn(C)c2c(=O)[nH]c(-c3cc(Cc4ccc(C(=O)N5CCNC(=O)C5)cc4)ccc3OCC)nc12 [Example 1-19]
5. CCCc1nc(C)c2c(=O)[nH]c(-c3cc(S(=O)(=O)NC4CCN(c5ncc(C(=O)Nc6ccccc6N)cn5)CC4)ccc3OCC)nn12 [Example 2-03]

1. 10 to 1000 nM
2. 10 to 1000 nM
3. 10 to 1000 nM
4. 10 to 1000 nM
5. < 10 nM

State the recorded IC50 for every item in the following list.
1. CCCc1nn(C)c2c(=O)[nH]c(-c3cc(S(=O)(=O)NC4CCN(c5ncc(C(=O)Nc6ccccc6N)cn5)CC4)ccc3OCC)nc12 [Example 1-02]
2. CCCc1nc(C)c2c(=O)[nH]c(-c3cc(CC4CC(C(=O)Nc5ccccc5N)C4)ccc3OCC)nn12 (racemic) [Example 2-04]
3. CCCc1nn(C)c2c(=O)[nH]c(-c3cc(Cc4ccc(C(=O)Nc5cc(-c6cccs6)ccc5N)cc4)ccc3OCC)nc12 [Example 1-13]

1. 10 to 1000 nM
2. < 10 nM
3. 1000 to 10000 nM
